Catalogue of Substrate Left (%) readings, one per entry.
- measured on: Recombinant Protein Encoded by the ORF of Zeatin O-xylosyltranferase (Phaseolus vulgaris)
- Construct: the ORF of the gene was excised from the pGem-T vector (Promega) using the restriction enzymes Not1 and Sal1; made in house; host or cells: E. coli BL21(DE3) pLysS
- Sequence (P56725 whole entry): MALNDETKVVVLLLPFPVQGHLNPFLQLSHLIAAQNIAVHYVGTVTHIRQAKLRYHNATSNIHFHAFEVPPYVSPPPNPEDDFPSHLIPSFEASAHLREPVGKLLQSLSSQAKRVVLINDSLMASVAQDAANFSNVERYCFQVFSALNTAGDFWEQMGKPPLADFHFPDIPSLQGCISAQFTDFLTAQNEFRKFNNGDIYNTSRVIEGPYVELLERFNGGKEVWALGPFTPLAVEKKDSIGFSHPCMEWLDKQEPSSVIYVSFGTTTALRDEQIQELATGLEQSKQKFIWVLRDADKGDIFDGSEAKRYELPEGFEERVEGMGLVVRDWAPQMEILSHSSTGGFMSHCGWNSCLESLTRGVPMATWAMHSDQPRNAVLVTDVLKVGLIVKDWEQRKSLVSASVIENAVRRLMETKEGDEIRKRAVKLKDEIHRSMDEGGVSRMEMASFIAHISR
- assay remarks: Cytokinin conversion assay with recombinant protein encoded by the ORF of zeatin O-xylosyltransferase (radio-labeled cytokinin + glycosyl donor, HPLC)
- Type: biochemical, Phaseolous vulgaris
- applied conditions: glycosyl donor UDPX; 125 μl protein from culture supernatant, 4 hrs
attribute measured: Substrate Left (%)

>  <compound>
C/C(=C\CNc1ncnc2[nH]cnc12)CO [Z, trans-zeatin]

>  <attribute measured>
Substrate Left (%)

>  <value observed>
18

$$$$
>  <compound>
C/C(=C/CNc1ncnc2nc[nH]c12)CO [cis-Z, Cis-zeatin]

>  <attribute measured>
Substrate Left (%)

>  <value observed>
100

$$$$
>  <compound>
CC(CO)CCNc1ncnc2nc[nH]c12 (stereo not shown) [DHZ, dihydrozeatin]

>  <attribute measured>
Substrate Left (%)

>  <value observed>
22

$$$$
>  <compound>
C/C(=C\CNc1ncnc2c1ncn2[C@@H]1O[C@H](CO)[C@@H](O)[C@H]1O)CO [RZ, ribosylzeatin]

>  <attribute measured>
Substrate Left (%)

>  <value observed>
100

$$$$
